Ref: patent US20200181262A1

Target: T1, recombinant human FcRn (Sino Biological Inc. Cat. No. CT009-H08H) (human, UniProt P55899 24-290; P61769 21-119)
T1 construct: Bought protein; also called hFcRn (SINO); immobilized FcRn
T1 sequence (P55899 24-290 limits assumed, chain 1 of 2): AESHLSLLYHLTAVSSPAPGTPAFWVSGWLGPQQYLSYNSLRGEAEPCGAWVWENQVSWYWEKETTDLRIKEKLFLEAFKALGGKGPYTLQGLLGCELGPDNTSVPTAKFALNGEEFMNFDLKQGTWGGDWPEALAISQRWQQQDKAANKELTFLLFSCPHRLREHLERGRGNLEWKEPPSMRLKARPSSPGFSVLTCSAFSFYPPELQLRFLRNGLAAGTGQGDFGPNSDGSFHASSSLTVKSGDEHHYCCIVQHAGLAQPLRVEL
T1 sequence (P61769 21-119 limits assumed, chain 2 of 2): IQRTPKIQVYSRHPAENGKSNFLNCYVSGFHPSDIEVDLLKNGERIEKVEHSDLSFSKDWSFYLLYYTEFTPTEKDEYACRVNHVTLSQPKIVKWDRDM
Assay: scFv competition ELISA vs biotinylated parent murine antibody, captured FcRn, pH 6
Exercise: for every item that follows, state its recorded fold decrease in IC50 (relative to humanized parent scFV).
Give bare numbers, in fold.

Would you please look over these solved cases?
binder	obsValue
E7 VH1 scFv with humanized parental Vκ1 (scFv) scFv: QVQLVQSGAEPKKPGASVKLSCKASGYTFTSYGISWVKQATGQGLEWIGEIYPRSGNTYYNEKFKGRATLTADKSTSTAYMELRSLRSEDSAVYFCARSTTVSPPHLWGTGTTVTVSSGGGGSGGGGSGGGGSDIQMTQSPSYLSASVGDRVTITCKASDHINNWLAWYQQKPGQAPRLLISGATSLETGVPSRFSGSGTGKDYTLTISSLQTEDFATYYCQQYWSTPYTFGGGTKVEIK	16.4
G9 VH1 scFv with humanized parental Vκ1 (scFv) scFv: QVQLVQSGAELKKPGASVKLSCKASGYTFTSYGISWVKQATGQGLEWIGEIYPRSGNTYYNEKFKGRATLTADKSTSTAYMELRSLRSEDSAVYFCARSTTVSPPRVWGTGTTVTVSSGGGGSGGGGSGGGGSDIQMTQSPSYLSASVGDRVTITCKASDHINNWLAWYQQKPGQAPRLLISGATSLETGVPSRFSGSGTGKDYTLTISSLQTEDFATYYCQQYWSTPYTFGGGTKVEIK	21.7
H2 VH1 scFv with humanized parental Vκ1 (scFv) scFv: QVQLVQSGAELKKPGASVKLSCKASGYTFTSYGISWVKQATGQGLEWIGEIYPRSGNTYYNEKFKGRATLTADKSTSTAYMELRSLRSEDSAVYFCARSTTVAPPAHWGTGTTVTVSSGGGGSGGGGSGGGGSDIQMTQSPSYLSASVGDRVTITCKASDHINNWLAWYQQKPGQAPRLLISGATSLETGVPSRFSGSGTGKDYTLTISSLQTEDFATYYCQQYWSTPYTFGGGTKVEIK	14.2
A4 VH1 scFv with humanized parental Vκ1 (scFv) scFv: QVQLVQSGAELKKPGASVKLSCKASGYTFTSYGISWVKQATGQGLEWIGEIYPRSGNTYYNEKFKGRATLTADKSTSTAYMELRSLRSEDSAVYFCARSTTVSPADFRGTGTTVTVSSGGGGSGGGGSGGGGSDIQMTQSPSYLSASVGDRVTITCKASDHINNWLAWYQQKPGQAPRLLISGATSLETGVPSRFSGSGTGKDYTLTISSLQTEDFATYYCQQYWSTPYTFGGGTKVEIK	5.04
E4 VH1 scFv with humanized parental Vκ1 (scFv) scFv: QVQLVQSGAELKKPGASVKLSCKASGYTFTSYGISWVKQATGQGLEWIGEIYPRSGNTYYNEKFKGRATLTADKSTSTAYMELRSLRSEDSAVYFCARSTTVHPDHNWGTGTTVTVSSGGGGSGGGGSGGGGSDIQMTQSPSYLSASVGDRVTITCKASDHINNWLAWYQQKPGQAPRLLISGATSLETGVPSRFSGSGTGKDYTLTISSLQTEDFATYYCQQYWSTPYTFGGGTKVEIK	3.65

# ---- query binder ----
Entry under test: C4 VH1 scFv with humanized parental Vκ1 (scFv) scFv: QVQLVQSGAELKKPGASVKLSCKASGYTFTSYGISWVKQATGQGLEWIGEIYPRSGNTYYNEKFKGRATLTADKSTSTAYMELRSLRSEDSAVYFCARSTTVAPPRLWGTGTTVTVSSGGGGSGGGGSGGGGSDIQMTQSPSYLSASVGDRVTITCKASDHINNWLAWYQQKPGQAPRLLISGATSLETGVPSRFSGSGTGKDYTLTISSLQTEDFATYYCQQYWSTPYTFGGGTKVEIK . Its fold decrease in IC50 (relative to humanized parent scFV) was 18.6
